Test system: TK-10 renal
Test: NCI tumour cell line growth inhibition, 48 h; in the data active = GI50 below about 0.43 µM; inactive = the rest
Your answer must be one of the following: 1 (yes) = active, 0 (no) = inactive

stdin: State the result this test recorded for O=c1c2ccccc2c(=O)c2c1sc1c(=O)c3ccc(O)cc3c(=O)c12 .
stdout: 0 (no)

stdin: Ok, now Fc1ccc(-c2cc(-c3cn[nH]c3-c3ccccn3)ccn2)cc1
stdout: 0 (no)

stdin: And for O=C(Nc1cccc(Cl)c1)c1cc(Cl)ccc1O ?
stdout: 0 (no)

stdin: // repeat for COc1cc(/C=C2\C(=O)Nc3ccc(Br)cc32)cc(OC)c1OC and report
stdout: 0 (no)

stdin: Please do the same for COc1ccc(-c2nn(-c3cccc(Cl)c3)cc2-c2cc(-c3cccs3)no2)cc1 as well.
stdout: 0 (no)

stdin: Next compound: O=C1c2cc3c(cc2-c2c1c1cc(F)c(F)cc1c(=O)n2C[C@H](O)CO)OCO3
stdout: 1 (yes)

stdin: Cc1cc([C@H](C)Nc2nccc(N3C(=O)OC[C@@H]3[C@H](C)F)n2)ncc1-c1ccnc(C(F)(F)F)c1 , same question.
stdout: 0 (no)

stdin: Note, next up: N#CC1=C(N)NC(=S)C(C#N)C12Nc1ccccc1S2 (centres undefined)
stdout: 0 (no)

stdin: Another compound to look at: CC(C)c1ccc2c(c1)c(SC(C)(C)C)c(CC(C)(C)C(=O)O)n2Cc1ccc(Cl)cc1
stdout: 0 (no)

---

System: ACHN renal
Assay: NCI tumour cell line growth inhibition, 48 h
recorded.metric: TGI

stdin: # get_value(readout= TGI, system= ACHN renal) for Cc1cc([C@H](C)Nc2nccc(N3C(=O)OC[C@@H]3[C@H](C)F)n2)ncc1-c1ccnc(C(F)(F)F)c1
stdout: > 100 µM

stdin: Let us now turn to COc1ccc2nc3cc(Cl)ccc3c(Nc3ccc(O)c(CN4CCCC4)c3)c2c1
stdout: 3.18 µM

stdin: Quick one: O=C(O)Cn1c[n+](NC(=O)Cc2ccccc2)cn1
stdout: > 10 µM

stdin: Now give it for N#CC1=C(N)NC(=S)C(C#N)C12Nc1ccccc1S2 (stereo unspecified) too.
stdout: 29.4 µM

stdin: And the next one, C=CCN(N=O)C(=O)ON1C(=O)CCC1=O ?
stdout: > 100 µM

stdin: Also CCC1(c2ccc(OC)c(OC)c2)CCN2C(=O)C(O)CC21 (stereo unspecified) , if possible.
stdout: > 100 µM

stdin: Now try C(/C=C/N1CCCC1)=C\c1nc(N2CCCC2)c2ccccc2n1 .
stdout: 30.8 µM

stdin: Again, but for N#Cc1ccnc(C(=O)N2CCCC2C(=O)O)c1 (stereo unspecified)
stdout: > 100 µM

stdin: Another compound: O=C(NOC(=O)c1ccc([N+](=O)[O-])cc1)c1ccc(Cl)cc1
stdout: > 100 µM

stdin: Same thing, different compound: O=C1Cc2ccccc2CCc2ccccc21
stdout: > 100 µM

stdin: Try this compound next: CCOC(=O)C(=Cc1c(-c2ccccc2)[nH]c2ccccc12)C(=O)OCC
stdout: 23.6 µM

---

Test system: T-47D breast
Assay: NCI tumour cell line growth inhibition, 48 h
Give TGI for every item shown.

stdin: TGI lookup needed for C[N+]1(CCCCN2c3ccccc3Sc3cc(N=[N+]=[N-])ccc32)CCN(C(=O)CCNC(=O)Cc2ccc(C(=O)c3ccccc3)cc2)CC1 , thanks.
stdout: > 76.4 µM

stdin: Could you do the same for CO[C@H](C)[C@](O)(C(=O)OCC1=CCN2CC[C@@H](O)[C@H]12)C(C)C , please?
stdout: > 100 µM

stdin: Would you kindly repeat that for CCOP(=O)(COCCn1nc(Br)c(=O)[nH]c1=O)OCC ?
stdout: > 100 µM

stdin: What about C=C[C@@]1(C)CC(=O)[C@]2(O)[C@@]3(C)[C@@H](O)CCC(C)(C)[C@@H]3[C@H](O)[C@@H](OC(C)=O)[C@@]2(C)O1 ?
stdout: > 100 µM

---

Tested on: RXF 393 renal
Assay: NCI tumour cell line growth inhibition, 48 h; in the data active = GI50 below about 0.43 µM; inactive = the rest
Parameter call: string, one of True for active, False for inactive

stdin: Record lookup: outcome of this test for CCn1c(-c2nonc2N)nc2c(C#CC(C)(C)O)ncc(OC[C@@H]3CCCN3)c21 ?
stdout: True

stdin: Now try CC(=O)c1c(Nc2ccc(F)c(F)c2F)[nH]c2c(F)cc(F)cc2c1=O .
stdout: True

stdin: Would you mind doing O=C(Nc1nc2ccc(F)cc2s1)c1cccnc1Nc1ccc(Cl)cc1Cl as well?
stdout: False

stdin: Check COc1ccc2nc3cc(Cl)ccc3c(Nc3ccc(O)c(CN4CCCC4)c3)c2c1 too.
stdout: False

stdin: Input O=c1c2ccccc2c(=O)c2c1sc1c(=O)c3ccc(O)cc3c(=O)c12
stdout: False

stdin: How about this compound: O=C(CCl)Nc1ccc(C(=O)N/N=C/c2ccc(Cl)cc2)cc1
stdout: False

stdin: Record: Cc1cc([C@H](C)Nc2nccc(N3C(=O)OC[C@@H]3[C@H](C)F)n2)ncc1-c1ccnc(C(F)(F)F)c1
stdout: False

---

System: IGROV1 ovarian
Assay: NCI tumour cell line growth inhibition, 48 h
recorded.metric: TGI

stdin: Can you look up the measured TGI of O=c1[nH]nc(-c2ccc([N+](=O)[O-])cc2)[nH]1 for me?
stdout: > 100 µM

stdin: Also Brc1ccc(/C(N=N/C(=N\Sc2ccccc2)c2ccc(Br)cc2)=N/Sc2ccccc2)cc1 , if possible.
stdout: > 100 µM

stdin: What do you get for CCn1c(-c2nonc2N)nc2c(C#CC(C)(C)O)ncc(OC[C@@H]3CCCN3)c21 ?
stdout: > 25 µM

stdin: Subsequent entry: CC12CCC(=O)[C@@]1(C)CCCC2=O (stereo not given in full)
stdout: > 100 µM

stdin: Same again, this time with C/C(=C\CO)CC[C@@H]1[C@@]2(C)CCCC(C)(C)[C@@H]2CC[C@@]1(C)O
stdout: 35.5 µM

---

Task for the reader: assign each of the following molecules its reported TGI.
Test system: NCI/ADR-RES ovarian
Test: NCI tumour cell line growth inhibition, 48 h

stdin: Notebook: pull reported TGI for NCI/ADR-RES ovarian, entry COc1ccc(-c2nn(-c3cccc(Cl)c3)cc2-c2cc(-c3cccs3)no2)cc1
stdout: 38.1 µM

stdin: Similarly, O=C(O[C@@H](/C=C/c1ccccc1)P1(=O)N(Cc2ccccc2)[C@@H]2CCCC[C@H]2N1Cc1ccccc1)c1ccccc1 ?
stdout: > 100 µM

stdin: Also, Cn1c2ccccc2c2c3c(=O)[nH][nH]c(=O)c3c3c4ccccc4n(C)c3c21 please.
stdout: > 100 µM

stdin: Same read-out for Cc1ccc2nc(Nc3ccccc3C)c(Nc3ccccc3C)nc2c1 ?
stdout: > 100 µM

stdin: Check COC(=O)c1ccc2cc(O)ccc2c1 too.
stdout: > 100 µM

stdin: Do the same for CCOC(=O)C(NC(=O)CC)(Nc1ccccc1F)C(F)(F)F (configuration not stated) please
stdout: > 100 µM

stdin: # iterate: CC(=O)OC1Oc2cc(C)c(C)cc2-c2oc(=O)c(-c3ccccc3)cc21 (configuration not stated)
stdout: 0.908 µM

stdin: Next up: O=C(Nc1cccc(Cl)c1)c1cc(Cl)ccc1O
stdout: > 29.4 µM

stdin: Then NC1(C(=O)O)CSSC1 ?
stdout: 27.7 µM

stdin: Can you handle Cc1cccc2c(N)c3cccc(C(=O)NCC[N+](C)(C)[O-])c3nc12 next?
stdout: > 100 µM

stdin: And for O=c1[nH]nc(-c2ccc([N+](=O)[O-])cc2)[nH]1 ?
stdout: > 100 µM

stdin: CN1CCN(CCCOc2ccc3ncnc(Nc4ccc(Oc5cccc(F)c5)c(Cl)c4)c3c2)CC1 , same question.
stdout: 4.79 µM

stdin: // same read-out, input: CCOC(=O)c1c(-c2ccc(OC)cc2)c(C#N)c(=S)n(C2OC(CO)C(O)C(O)C2O)c1C (configuration not stated)
stdout: > 100 µM

stdin: Request: Cc1cc2c(-c3nc4ccccn4c3NC34CC5CC(CC(C5)C3)C4)c(O)c(O)cc2c(O)c1-c1c(C)cc2c(-c3nc4ccccn4c3NC34CC5CC(CC(C5)C3)C4)c(O)c(O)cc2c1O
stdout: > 25 µM

stdin: Now try COc1ccc(CNC(=O)c2ccc(-c3cc(-c4nnc(C)o4)ccc3C)cc2)cc1 .
stdout: > 25 µM

stdin: Another molecule to check: CCc1ccc(OCc2ccccc2C(=O)Nc2ccc3nc(C)cc(N)c3c2)cc1
stdout: 4.2 µM

stdin: Do the same for Fc1ccc(OCc2ccc3nc(-c4ccccc4)c(Cl)nc3c2)cc1 please
stdout: > 100 µM

stdin: Thanks! And COc1cccc(C2CC(=O)Nc3cc4c(cc32)CCC4)c1OC (configuration not stated) ?
stdout: 7.14 µM

stdin: Note, next up: OC(CCN1CCN(CCOC(c2ccc(F)cc2)c2ccc(F)cc2)CC1)c1ccc(Br)cc1 (configuration not stated)
stdout: 7.67 µM

stdin: And then Oc1ccc(C[C@@H]2CN[C@H](Cc3ccc(O)c(Br)c3)CN2)cc1 , what is it?
stdout: > 100 µM

stdin: Then C=C1C(=O)C23CC1CCC2C12CO[C@@]3(O)[C@@H](O)C1C(C)(C)C=CC2=O (some centres not stated) ?
stdout: 60.4 µM

stdin: Please do the same for CC(C)(C)[Si](C)(C)OC1CCOC1(O)c1ccccn1 (configuration not stated) as well.
stdout: > 100 µM

stdin: Can you check Cc1ccc2c(C(C[N+](=O)[O-])c3ccco3)c(-c3ccccc3)[nH]c2c1 (configuration not stated) next?
stdout: > 100 µM

stdin: Can you check O=c1cccc2n1CC1CNCC2C1 (configuration not stated) next?
stdout: > 100 µM

stdin: # iterate: COc1ccc(C(=O)/C=C/c2ccc(OCCCCCCCCCCOc3ccc(/C=C/C(=O)c4ccc(OC)c(OC)c4)cc3)cc2)c(OC)c1
stdout: > 100 µM

stdin: Entry to check: C[C@@](Br)(C(=O)O)[C@H](Br)C(=O)O
stdout: > 100 µM

stdin: Subsequent entry: CC12CCC(=O)[C@@]1(C)CCCC2=O (some centres not stated)
stdout: > 100 µM

stdin: Item: CN(C)C(=O)/N=C1\SC(=Nc2ccccc2)C(=Nc2ccccc2)N1c1ccc([N+](=O)[O-])cc1
stdout: > 100 µM

stdin: Check COc1ccc2c(c1)-c1nc(=S)n(CCN(C)C)c3ccc([N+](=O)[O-])c(c13)N2 too.
stdout: 3.61 µM

stdin: Continue with COc1ccc(-c2nn3ncccc3c2-c2ccnc(Nc3cccc(C(F)(F)F)c3)n2)cc1
stdout: > 25 µM

stdin: Now this one: Cc1nc2cc(Nc3nc(Nc4ccc(F)cc4)nc(-c4ccc(Cl)cc4)n3)ccc2n1Cc1ccccc1
stdout: 33.8 µM

stdin: Thanks! And COc1ccc(-c2nn(-c3cccc(Cl)c3)cc2/C=C2\C(=N)N(c3ccccc3)N=C2N)cc1 ?
stdout: > 48.9 µM
